The measurements presented in this section are drawn from ChEMBL document CHEMBL1147967.

Here's a batch of compounds along with measured IC50 for Coagulation factor X (Homo sapiens, UniProt P00742).
Quick note: give the figure in nM, leave out the unit.

Measured IC50 of "COc1ccc(C)cc1S(=O)(=O)N1CCC(N(Cc2ccc3ccc(C(=N)N)cc3c2)S(C)(=O)=O)CC1" : 58

Input "CS(=O)(=O)N(Cc1ccc2ccc(C(=N)N)cc2c1)C1CCN(S(=O)(=O)c2cccc(Cl)c2)CC1" . Output IC50: 49

The recorded IC50 for "CS(=O)(=O)N(Cc1ccc2ccc(C(=N)N)cc2c1)C1CCN(S(=O)(=O)c2cccc(C#N)c2)CC1" is 170

---

Measurement record for Coagulation factor X (Homo sapiens, UniProt P00742); quantity recorded: pIC50.
Keep in mind that pIC50 stands for -log10 of concentration in molar terms.

> print(dat)
                                smiles.code  parameter.measured  observed
1  COc1ccc(OC)c(S(=O)(=O)N2CCC(N(Cc3ccc4ccc(C(=N)N)cc4c3)C(=O)CC(=O)O)CC2)c1               pIC50      8.09

Switching to the query record.
Item "CS(=O)(=O)N(Cc1ccc2ccc(C(=N)N)cc2c1)C1CCN(S(=O)(=O)c2ccccc2)CC1" was tested on Coagulation factor X (Homo sapiens, UniProt P00742); the reported pIC50 is 6.07
